- Test system: normal NK cells expanded with K562-aAPC
- method.summary: percent inhibition of viability; higher = more inhibition
- experimental.conditions: 72 h; IL-2 2.5 ng/mL; 1000 nM

[
  {
    "molecule": "CN1CCN(c2nc(C3=C(c4c[nH]c5ccccc45)C(=O)NC3=O)c3ccccc3n2)CC1 [Sotrastaurin] (max concentration tested 10000 nM)",
    "percent inhibition of viability": "19.1%"
  },
  {
    "molecule": "CC/C(=C(\\c1ccc(O)cc1)c1ccc(OCCN(C)C)cc1)c1ccccc1 [4-hydroxytamoxifen] (max concentration tested 10000 nM)",
    "percent inhibition of viability": "7.65%"
  },
  {
    "molecule": "Cn1c(CCCC(=O)O)nc2cc(N(CCCl)CCCl)ccc21 [Bendamustine] (max concentration tested 10000 nM)",
    "percent inhibition of viability": "12.2%"
  },
  {
    "molecule": "O=C1NC(=O)[C@@H](c2cn3c4c(cccc24)CCC3)[C@@H]1c1c[nH]c2ccccc12 [Tivantinib] (max concentration tested 1000 nM)",
    "percent inhibition of viability": "61%"
  },
  {
    "molecule": "COC(=O)N[C@@H](C)CNc1nccc(-c2cn(C(C)C)nc2-c2cc(Cl)cc(NS(C)(=O)=O)c2F)n1 [Encorafenib] (max concentration tested 1000 nM)",
    "percent inhibition of viability": "8.45%"
  },
  {
    "molecule": "Clc1ccc(Nc2nnc(Cc3ccncc3)c3ccccc23)cc1 [Vatalanib] (max concentration tested 10000 nM)",
    "percent inhibition of viability": "9.03%"
  }
]

---

- System: NK-YS (IL-2 2.5 ng/mL);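 further: normalised to DMSO-only wells as negative and benzethonium chloride as positive control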
- method.summary: percent inhibition of viability; higher = more inhibition
- experimental.conditions: 72 h; 100 nM
Reported percent inhibition of viability by item:

[
  {
    "compound": "CN(C)CCN1C(=O)c2cccc3cc(N)cc(c23)C1=O [Amonafide] (max concentration tested 10000 nM)",
    "tested.on": "NK-YS (IL-2 2.5 ng/mL)",
    "percent inhibition of viability": "10.8%"
  },
  {
    "compound": "NC(=O)NO [Hydroxyurea] (max concentration tested 100000 nM)",
    "tested.on": "NK-YS (IL-2 2.5 ng/mL)",
    "percent inhibition of viability": "-2.69%"
  },
  {
    "compound": "CS(=O)(=O)N1CCN(Cc2cc3nc(-c4cccc5[nH]ncc45)nc(N4CCOCC4)c3s2)CC1 [Pictilisib] (max concentration tested 10000 nM)",
    "tested.on": "NK-YS (IL-2 2.5 ng/mL)",
    "percent inhibition of viability": "4.67%"
  },
  {
    "compound": "Cn1cc(C2=C(c3cn(C4CCN(Cc5ccccn5)CC4)c4ccccc34)C(=O)NC2=O)c2ccccc21 [Enzastaurin] (max concentration tested 10000 nM)",
    "tested.on": "NK-YS (IL-2 2.5 ng/mL)",
    "percent inhibition of viability": "5.54%"
  }
]

---

- Tested on: NK-YS (IL-2 2.5 ng/mL);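 further: normalised to DMSO-only wells as negative and benzethonium chloride as positive control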
- method.summary: percent inhibition of viability; higher = more inhibition
- experimental.conditions: 72 h; 10 nM
Catalogue of percent inhibition of viability values
experimental.readout: percent inhibition of viability (%)

[
  {
    "compound": "NC(=O)Nc1cc(-c2cccc(F)c2)sc1C(=O)N[C@H]1CCCNC1 [AZD7762] (max concentration tested 1000 nM)",
    "tested.on": "NK-YS (IL-2 2.5 ng/mL)",
    "units.of.measure": "%",
    "measured.result": -1.14
  },
  {
    "compound": "Cc1ccc(-n2nc(C(C)(C)C)cc2NC(=O)Nc2ccc(OCCN3CCOCC3)c3ccccc23)cc1 [Doramapimod] (max concentration tested 10000 nM)",
    "tested.on": "NK-YS (IL-2 2.5 ng/mL)",
    "units.of.measure": "%",
    "measured.result": 3.68
  },
  {
    "compound": "NC1(c2ccc(-c3nc4ccn5c(=O)[nH]nc5c4cc3-c3ccccc3)cc2)CCC1 [MK-2206] (max concentration tested 1000 nM)",
    "tested.on": "NK-YS (IL-2 2.5 ng/mL)",
    "units.of.measure": "%",
    "measured.result": 5.87
  },
  {
    "compound": "CNC(=O)c1ccccc1Sc1ccc2c(/C=C/c3ccccn3)n[nH]c2c1 [Axitinib] (max concentration tested 10000 nM)",
    "tested.on": "NK-YS (IL-2 2.5 ng/mL)",
    "units.of.measure": "%",
    "measured.result": -2.56
  },
  {
    "compound": "NC(=O)c1cccc(-c2cccc(OC(=O)NC3CCCCC3)c2)c1 [URB597] (max concentration tested 1000 nM)",
    "tested.on": "NK-YS (IL-2 2.5 ng/mL)",
    "units.of.measure": "%",
    "measured.result": 8.14
  },
  {
    "compound": "Cn1c(=O)n(-c2ccc(C(C)(C)C#N)cc2)c2c3cc(-c4cnc5ccccc5c4)ccc3ncc21 [Dactolisib] (max concentration tested 1000 nM)",
    "tested.on": "NK-YS (IL-2 2.5 ng/mL)",
    "units.of.measure": "%",
    "measured.result": 24.7
  },
  {
    "compound": "CCCc1cc(C)[nH]c(=O)c1CNC(=O)c1cc(-c2ccnc(N3CCN(C)CC3)c2)cc2c1cnn2C(C)C [GSK343] (max concentration tested 10000 nM)",
    "tested.on": "NK-YS (IL-2 2.5 ng/mL)",
    "units.of.measure": "%",
    "measured.result": -3.63
  },
  {
    "compound": "Nc1nc(Nc2ccc3c(c2)CC[C@@H](N2CCCC2)CC3)nn1-c1cc2c(nn1)-c1ccccc1CCC2 [BGB324] (max concentration tested 10000 nM)",
    "tested.on": "NK-YS (IL-2 2.5 ng/mL)",
    "units.of.measure": "%",
    "measured.result": -2.03
  },
  {
    "compound": "CC(C)c1c(C(=O)Nc2ccccc2)c(-c2ccccc2)c(-c2ccc(F)cc2)n1CC[C@@H](O)C[C@@H](O)CC(=O)O [Atorvastatin] (max concentration tested 10000 nM)",
    "tested.on": "NK-YS (IL-2 2.5 ng/mL)",
    "units.of.measure": "%",
    "measured.result": 1.58
  },
  {
    "compound": "C[C@@H](C(=O)O)c1ccc(-c2ccccc2)c(F)c1 [Tarenflurbil] (max concentration tested 10000 nM)",
    "tested.on": "NK-YS (IL-2 2.5 ng/mL)",
    "units.of.measure": "%",
    "measured.result": -2.88
  },
  {
    "compound": "O=C(NC[C@H](O)CO)c1ccncc1Nc1ccc(I)cc1F [Pimasertib] (max concentration tested 10000 nM)",
    "tested.on": "NK-YS (IL-2 2.5 ng/mL)",
    "units.of.measure": "%",
    "measured.result": -3.17
  },
  {
    "compound": "Cc1c(N)nc([C@H](CC(N)=O)NC[C@H](N)C(N)=O)nc1C(=O)N[C@H](C(=O)N[C@H](C)[C@@H](O)[C@H](C)C(=O)N[C@H](C(=O)NCCc1nc(-c2nc(C(=O)NCCC[S+](C)C)cs2)cs1)[C@@H](C)O)[C@@H](OC1OC(CO)C(O)C(O)C1OC1OC(CO)C(O)C(OC(N)=O)C1O)c1cnc[nH]1 (stereo not given in full) [Bleomycin] (max concentration tested 10000 nM)",
    "tested.on": "NK-YS (IL-2 2.5 ng/mL)",
    "units.of.measure": "%",
    "measured.result": -5.64
  },
  {
    "compound": "C=CCn1c(=O)c2cnc(Nc3ccc(N4CCN(C)CC4)cc3)nc2n1-c1cccc(C(C)(C)O)n1 [MK1775] (max concentration tested 10000 nM)",
    "tested.on": "NK-YS (IL-2 2.5 ng/mL)",
    "units.of.measure": "%",
    "measured.result": -7.13
  },
  {
    "compound": "Cn1ncnc1[C@H]1c2n[nH]c(=O)c3cc(F)cc(c23)N[C@@H]1c1ccc(F)cc1 [Talazoparib] (max concentration tested 1000 nM)",
    "tested.on": "NK-YS (IL-2 2.5 ng/mL)",
    "units.of.measure": "%",
    "measured.result": 27.9
  },
  {
    "compound": "c1ccc(Cn2c(-c3ccc(OC[C@H](C4CCNCC4)n4c(-c5ccccc5)nc5ccccc54)cc3)nc3ccccc32)cc1 [deltarasin] (max concentration tested 10000 nM)",
    "tested.on": "NK-YS (IL-2 2.5 ng/mL)",
    "units.of.measure": "%",
    "measured.result": 0.11
  },
  {
    "compound": "O=C(O)c1ccc(-c2c[nH]c3ncc(-c4ccccc4)cc23)cc1C1CCCC1 (max concentration tested 10000 nM)",
    "tested.on": "NK-YS (IL-2 2.5 ng/mL)",
    "units.of.measure": "%",
    "measured.result": -4.11
  },
  {
    "compound": "C=C(c1ccc(C(=O)O)cc1)c1cc2c(cc1C)C(C)(C)CCC2(C)C [Bexarotene] (max concentration tested 10000 nM)",
    "tested.on": "NK-YS (IL-2 2.5 ng/mL)",
    "units.of.measure": "%",
    "measured.result": -6.05
  },
  {
    "compound": "Cc1cc(Nc2nc(N[C@@H](C)c3ncc(F)cn3)ncc2Cl)[nH]n1 [AZD1480] (max concentration tested 1000 nM)",
    "tested.on": "NK-YS (IL-2 2.5 ng/mL)",
    "units.of.measure": "%",
    "measured.result": 8.06
  },
  {
    "compound": "CO[C@H](C(=O)[C@@H](O)[C@@H](C)O)[C@@H]1Cc2cc3cc(O[C@H]4C[C@@H](O[C@@H]5C[C@@H](O)[C@H](O)[C@@H](C)O5)[C@H](O)[C@@H](C)O4)c(C)c(O)c3c(O)c2C(=O)[C@H]1O[C@H]1C[C@@H](O[C@@H]2C[C@@H](O)[C@@H](O[C@@H]3C[C@](C)(O)[C@H](O)[C@@H](C)O3)[C@@H](C)O2)[C@H](O)[C@@H](C)O1 [Plicamycin] (max concentration tested 10000 nM)",
    "tested.on": "NK-YS (IL-2 2.5 ng/mL)",
    "units.of.measure": "%",
    "measured.result": 6.73
  },
  {
    "compound": "CO[C@H]1C[C@@H]2CC[C@@H](C)[C@@](O)(O2)C(=O)C(=O)N2CCCC[C@H]2C(=O)O[C@H]([C@H](C)C[C@@H]2CC[C@@H](OCCO)[C@H](OC)C2)CC(=O)[C@H](C)/C=C(\\C)[C@@H](O)[C@@H](OC)C(=O)[C@H](C)C[C@H](C)/C=C/C=C/C=C/1C [Everolimus] (max concentration tested 100 nM)",
    "tested.on": "NK-YS (IL-2 2.5 ng/mL)",
    "units.of.measure": "%",
    "measured.result": 47.2
  }
]
